- Measurement notes: chemical genetic growth profiling, strain panel (AID 1159580);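 further: tested at 20 µM; growth read once vehicle control cultures reached saturation at 30 °C; 1 = growth at the plate median or of vehicle wells; lower values mean less growth of the strain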
- Condition details: S. cerevisiae deletion strains, growth OD, locus YNL197C, strain WHI3, active compounds read low
About 2,000 (36%) of roughly 5,500 compounds were called active. Not shown: some 18% with an inconclusive outcome. This is one part of the list.
Recorded measurements of normalized growth, one per entry
Reply briefly: the number, and no unit.

Requested read-out: normalized growth. Entry: C/C(=C\c1ccc(C(=O)O)cc1)c1ccc2c(c1)C(C)(C)CCC2(C)C
0.965

Consider next the molecule C[N+]1(C)CCOC(O)(c2ccc(-c3ccc(C4(O)C[N+](C)(C)CCO4)cc3)cc2)C1 (stereo not given) in the same way.
1.01

Then what about the molecule C#CCN[C@H](C)Cc1ccccc1 ?
0.982

CC(N)(C(=O)O)c1ccc(C(=O)O)cc1 (stereo not given) , same question.
1.02

// next record Nc1ncnc2c1ncn2C1CCCO1 (stereo not given)
0.967

What do you have for Cc1c(C)c2c(c(C)c1O)CCC(C)(CN1CCN(c3cc(N4CCCC4)nc(N4CCCC4)n3)CC1)O2 (stereo not given) ?
1.08

Input CC(=O)N[C@@H](Cc1c[nH]c2ccccc12)C(=O)OCc1cc(C(F)(F)F)cc(C(F)(F)F)c1
0.994

Same again, this time with NCC(O)(CS(=O)(=O)O)c1ccc(Cl)cc1 (stereo not given)
0.98

Consider next the molecule NC(=O)c1ccccc1 in the same way.
0.979

Then this molecule: C[N+]1(C)CCC(OC(=O)C(c2ccccc2)c2ccccc2)CC1
1.03
